Source: patent US20210032312A1

target: T1, In house human CD8A-Fc (human, UniProt P01732 22-182, limits assumed); assay: SPR (ProteOn), captured hCD8A-Fc
T1 construct: Captured on goat anti-human Fc on a ProteOn GLC chip; also called hCD8A-Fc; recombinant human CD8 alpha; not shown: linker with flag (and polyhistidine) tag and Fc of human IgG1
T1 sequence (P01732 22-182 limits assumed): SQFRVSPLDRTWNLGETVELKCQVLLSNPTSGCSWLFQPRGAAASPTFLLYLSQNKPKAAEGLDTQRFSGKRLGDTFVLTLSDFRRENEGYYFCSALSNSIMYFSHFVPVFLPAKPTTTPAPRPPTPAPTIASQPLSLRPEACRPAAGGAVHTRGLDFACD
koff values, listed per item
Number in s⁻¹, nothing else.

INSERT INTO measurements (binder, value_type, numeric_readout) VALUES
  ('P283AR9P1362_D3 (designed binder, FN3 domain) LPAPKNLVVSRVTEDSARLSWPVESNAFDSFLIQYQESEKVGEAIVLTVPGSERSYDLTGLKPGTEYTVSIYGVDVEYDQHGRPRWSNPLSAIFTT', 'koff', 0.000125);

In the following, a different binder is considered.
*Q* Tell us which koff value is on record for P282AR9P1356_H1 (designed binder, FN3 domain) LPAPKNLVVSRVTEDSARLSWIPNPSSFDSFLIQYQESEKVGEAIVLTVPGSERSYDLTGLKPGTEYTVSIYGVDVVFDPVGFPSHSNPLSAIFTT
*A* 0.000114
